Test: Cmax in Wistar Han rat at 3 mg/kg, iv or 10 mg/kg, po
Assay type: ADME, organism-based
Conditions: in vivo
Measured Cmax values are reported for all entries that follow.
Measurement type: Cmax (nM)

CC(C)Nc1ccc2cnn(-c3cncc(-c4ccc(C(=O)O)cc4)n3)c2c1; 830
CC(C)Nc1ccc2ccn(-c3cncc(-c4ccc(C(=O)O)cc4)n3)c2c1; 2900

---

Assay: AUC (0 to t) in Wistar Han rat at 3 mg/kg, iv or 10 mg/kg, po
Assay type: ADME, organism-based
Conditions: in vivo
Measurement type: AUC(0-t) (µM·h)

CC(C)Nc1ccc2ccn(-c3cncc(-c4ccc(C(=O)O)cc4)n3)c2c1; 5.5
CC(C)Nc1ccc2cnn(-c3cncc(-c4ccc(C(=O)O)cc4)n3)c2c1; 5.5

---

Assay: Lipophilicity, log D of the compound
Type: physicochemical
Conditions: octanol/water
Measurement type: logD

CC(C)Nc1ccc2cnn(-c3cncc(-c4ccc(C(=O)O)cc4)n3)c2c1; 1.06

---

Entries and their clearance
Test: Clearance in Wistar Han rat at 3 mg/kg, iv
Format: ADME, organism-based
Settings: in vivo
Measurement type: clearance (mL/min/kg)

CC(C)Nc1ccc2ccn(-c3cncc(-c4ccc(C(=O)O)cc4)n3)c2c1; 56
CC(C)Nc1ccc2cnn(-c3cncc(-c4ccc(C(=O)O)cc4)n3)c2c1; 19

---

Experiment: Oral bioavailability in Wistar Han rat at 10 mg/kg
Format: ADME, organism-based
Settings: in vivo
Measurement type: bioavailability

CC(C)Nc1ccc2cnn(-c3cncc(-c4ccc(C(=O)O)cc4)n3)c2c1; 24%
CC(C)Nc1ccc2ccn(-c3cncc(-c4ccc(C(=O)O)cc4)n3)c2c1; 80%
